tested on: panel of cancer cell lines; test: Cell viability (CellTiter-Glo) dose-response across cancer cell line panel; assay type: cell-based, human; settings: Homo sapiens, OCI-LY19, OCI-LY-19;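 further: after 72 h compound incubation with CellTiter-Glo ATP readout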
endpointName: pEC50
Expect pEC50 as a plain number equal to -log10 of the molar concentration.

pEC50 recorded for this compound, `CC(C)C[C@H](NC(=O)[C@H](Cc1ccccc1)NC(=O)c1cnccn1)B(O)O` , is 7.95

* * *

test system: panel of cancer cell lines; test: Cell viability (CellTiter-Glo) dose-response across cancer cell line panel; type: cell-based, human; conditions: Homo sapiens, SUP-T1, SUP-T1 cells;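 further: after 72 h compound incubation with CellTiter-Glo ATP readout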
endpointName: EC50 (µM)
A number alone suffices; assume µM.

EC50 recorded for this compound, COCc1ccccc1NCc1ccc([C@@H]2[C@H](O)CCCc3cncn32)c(-c2ccccc2Cl)c1 [CSN5i-2e] , is 10.1

* * *

System: panel of cancer cell lines
Assay: Cell viability (CellTiter-Glo) dose-response across cancer cell line panel;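 further: after 72 h compound incubation with CellTiter-Glo ATP readout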
Type: cell-based, human
Conditions: Homo sapiens, HSC-2, HSC-2 cells
Description: Next, we explored the effect of CSN5 inhibition on the viability of cancer cells. […] A standardized CellTiter-Glo Assay (Promega #G7570) based on the quantification of ATP was applied according to the manufacturer's protocol to measure the amount of viable cells in culture. […] EC50 values were calculated from the plot of percentage of inhibition versus inhibitor concentration using the nonlinear regression analysis software Origin 7.5SR6 (OriginLab Corp.).
endpointName: EC50 (µM)
A number alone suffices; assume µM.

EC50 recorded for this compound, `COCc1ccccc1NCc1ccc([C@@H]2[C@H](O)CCCc3cncn32)c(-c2ccccc2Cl)c1` , is 23.9

* * *

biological target: RPN11 (26S proteasome) (Homo sapiens, UniProt O00487)
endpointName: IC50
Mention the unit after the number when you answer.

IC50 recorded for this molecule, `CC(C)n1nc(C(F)F)cc1C(=O)Nc1ccc([C@H]2[C@@H](O)CCCc3cncn32)c(-c2ccccc2)c1` , is 53 µM

* * *

tested on: panel of cancer cell lines; test: Cell viability (CellTiter-Glo) dose-response across cancer cell line panel; type: cell-based, human; conditions: Homo sapiens, Hep 3B2.1-7 cells;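 further: after 72 h compound incubation with CellTiter-Glo ATP readout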
endpointName: EC50

EC50 recorded for this compound, COCc1ccccc1NCc1ccc([C@@H]2[C@H](O)CCCc3cncn32)c(-c2ccccc2Cl)c1 [CSN5i-2e] , is 11.1 µM

* * *

system: panel of cancer cell lines; assay: Cell viability (CellTiter-Glo) dose-response across cancer cell line panel; type: cell-based, human; settings: Homo sapiens, NCI-H1341;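 further: after 72 h compound incubation with CellTiter-Glo ATP readout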
What EC50 was measured for each of the following?
A number alone suffices; assume nM.

EC50 recorded for this compound, `NS(=O)(=O)OC[C@@H]1C[C@@H](n2ccc3c(N[C@H]4CCc5ccccc54)ncnc32)C[C@@H]1O` , is 86.4

EC50 recorded for this compound, `COCc1ccccc1NCc1ccc([C@H]2[C@@H](O)CCCc3cncn32)c(-c2ccccc2Cl)c1` , is 2010

EC50 recorded for this compound, `CC(C)C[C@H](NC(=O)[C@H](Cc1ccccc1)NC(=O)c1cnccn1)B(O)O` , is 11

* * *

tested on: panel of cancer cell lines; experiment: Cell viability (CellTiter-Glo) dose-response across cancer cell line panel; type: cell-based, human; conditions: Homo sapiens, MM466 cells;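 further: after 72 h compound incubation with CellTiter-Glo ATP readout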
endpointName: EC50
Mention the unit after the number when you answer.

EC50 recorded for this compound, COCc1ccccc1NCc1ccc([C@@H]2[C@H](O)CCCc3cncn32)c(-c2ccccc2Cl)c1 [CSN5i-2e] , is 24.5 µM
